Test system: Rattus norvegicus
ASSAY PROTOCOL: […] in Freund's adjuvant-induced Lewis rat arthritis model assessed as reduction of uninjected paw volume at 0.2 mmol/kg, po qd administered on day 0 to day 21 of adjuvant challenge measured on day 21 by plethysmometry relative to control
Assay type: organism-based
Parameters: scale not given: the % may be the effect or the level left
CONDITIONS USED: in vivo
Classify by Activity. Ranges: lower bin: < 10%; middle bin: ≥ 10% and < 30%; upper bin: ≥ 30%

Check out these entries, answers already filled in.
O=C(O)CCn1cc(-c2cccc(F)c2)nn1 : lower bin
O=C(O)CCn1cc(-c2cccc(Br)c2)nn1 : middle bin

Which class does O=C(O)CCn1ncc(-c2ccccc2)n1 fall in? upper bin

Which class does O=C(O)CCc1cn(-c2ccccc2)nn1 fall in? lower bin

Which class does O=C(O)/C=C/c1cnn(-c2ccccc2)n1 fall in? upper bin

Which class does Cc1cccc(-c2ncn(CCC(=O)O)n2)c1 fall in? upper bin

Which class does O=C(O)CCn1cnc(-c2cccc(Cl)c2)n1 fall in? middle bin

Which class does Cc1cccc(-c2cnn(CCC(=O)O)n2)c1 fall in? lower bin

Which class does O=C(O)CCn1cnc(-c2cccc(Br)c2)n1 fall in? middle bin

Which class does O=C(O)CCc1nc(-c2cccc(Cl)c2)n[nH]1 fall in? lower bin
